Known IC50 of a selection of compounds
- assay target: mPAD4 (Mus musculus)
- Sequence (Q9Z183 whole entry): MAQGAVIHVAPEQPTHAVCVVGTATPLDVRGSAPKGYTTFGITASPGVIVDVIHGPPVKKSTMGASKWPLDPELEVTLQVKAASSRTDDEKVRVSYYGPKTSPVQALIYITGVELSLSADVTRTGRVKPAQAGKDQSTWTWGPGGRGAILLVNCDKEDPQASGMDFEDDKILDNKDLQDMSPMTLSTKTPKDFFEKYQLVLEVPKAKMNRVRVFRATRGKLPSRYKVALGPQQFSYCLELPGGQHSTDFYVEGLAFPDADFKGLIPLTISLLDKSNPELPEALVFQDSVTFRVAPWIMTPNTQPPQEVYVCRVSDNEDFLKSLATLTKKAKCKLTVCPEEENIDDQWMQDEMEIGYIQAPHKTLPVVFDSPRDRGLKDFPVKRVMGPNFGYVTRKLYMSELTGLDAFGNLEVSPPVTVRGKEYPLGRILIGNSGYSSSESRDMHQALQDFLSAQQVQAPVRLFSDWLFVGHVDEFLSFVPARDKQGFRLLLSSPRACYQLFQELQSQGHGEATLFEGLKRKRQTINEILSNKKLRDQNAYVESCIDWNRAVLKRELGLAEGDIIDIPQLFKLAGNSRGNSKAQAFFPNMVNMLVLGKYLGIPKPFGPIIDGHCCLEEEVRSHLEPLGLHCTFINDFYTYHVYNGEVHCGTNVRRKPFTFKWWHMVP
- procedure text: mPAD4 RFMS PAD4 inhibition assay
- Type: biochemical
- assay conditions: mPAD4, RFMS readout; read-out: mPAD4 RFMS IC50
value kind: IC50

- compound: "COc1cc(C(=O)N2C[C@H]3CC[C@@H]2[C@@H]3N)cc2nc(-c3cc4cccnc4n3CC3CC3)n(CC(F)F)c12 [Compound I-233]"
  value kind: "IC50"
  reading: "< 1000 nM"
- compound: "CCCn1c(-c2nc3cc(C(=O)N4CCC[C@@H](N)C4)cc(OC)c3n2C)cc2cccnc21 [Compound I-149]"
  value kind: "IC50"
  reading: "< 1000 nM"
- compound: "COc1cc(C(=O)N2C[C@H](N)CC[C@H]2CO)cc2nc(-c3cc4cccnc4n3CC3CC3)n(C)c12 (racemic) [Compound I-220]"
  value kind: "IC50"
  reading: "> 10000 nM"
- compound: "Cn1c(-c2cc3cccnc3n2CC2CC2)nc2cc(C(=O)N3CC[C@H](F)[C@@H](N)C3)ccc21 [Compound I-54]"
  value kind: "IC50"
  reading: "> 10000 nM"
- compound: "CCn1c(-c2nc3cc(C(=O)N4CCC[C@@H](N)C4)cc(OC)c3n2C)cc2ccc(C)nc21 [Compound I-161]"
  value kind: "IC50"
  reading: "< 1000 nM"
- compound: "COc1cc(C(=O)N2C[C@H]3CC[C@@H]2[C@@H]3N)cc2nc(-c3cc4ccc(C(F)(F)F)nc4n3CC3CC3)n(C)c12 [Compound I-196]"
  value kind: "IC50"
  reading: "< 1000 nM"
- compound: "COc1cc(C(=O)N2C[C@H]3C[C@H](O)[C@@H]2[C@@H]3N)cc2nc(-c3cc4cccnc4n3CC3CC3)n(C)c12 [Compound I-162]"
  value kind: "IC50"
  reading: "1000 to 5000 nM"

====

- assay target: hPAD4 (Homo sapiens)
- procedure text: hPAD4 RFMS (RapidFire mass spectrometry) PAD4 inhibition assay
- Type: biochemical
- assay conditions: hPAD4 enzyme, RFMS readout; read-out: hPAD4 RFMS IC50
- Protocol: Compounds of the present invention were assayed as inhibitors of PAD4 using the assay protocol described below. Compound stock solutions were stored at RT. […] Final assay conditions were as follows: Total incubation time: 65 mins at 37° C. Stop solution: 40 μl 5% TCA in ACN The compound numbers correspond to the compound numbers in Table 1. […] The term pIC50=−log(IC50). […] “NA” stands for “not assayed.”
pIC50: −log10 of the molar value.
value kind: pIC50

- molecule: "COc1cc(C(=O)N2C[C@H]3CC[C@@H]2[C@@H]3N)cc2nc(-c3cc4cccnc4n3CC3CC3)n(CC[S+](C)[O-])c12 (stereo partly drawn) [Compound I-213]"
  reading: "> 6.00"
- molecule: "COc1cc(C(=O)N2C[C@H]3CCC2[C@H]3N)cc2nc(-c3cc4ccc(/C=C/c5ccc(C(F)(F)F)cc5)cc4n3CC3CC3)n(C)c12 [Compound I-367]"
  reading: "> 6.00"
- molecule: "CCn1c(-c2nc3cc(C(=O)N4CCC[C@@H](N)C4)cc(OC)c3n2C)cc2ccc(C)nc21 [Compound I-161]"
  reading: "> 6.00"
- molecule: "CCn1c(-c2nc3cc(C(=O)N4C[C@H]5CC[C@@H]4[C@@H]5N)cc(OC)c3n2C)cc2ccc(C(F)(F)F)nc21 [Compound I-183]"
  reading: "> 6.00"
- molecule: "Cn1c(-c2cc3cccnc3n2CC2CC2)nc2cc(C(=O)N3CCC[C@@H](N)C3)cc(OCC(F)(F)F)c21 [Compound I-59]"
  reading: "5.30 to 6.00"
- molecule: "COc1cc(C(=O)N2C[C@H]3CC[C@@H]2[C@@H]3N)cc2nc(-c3cc4cccnc4n3CC3CC3)n([C@H]3C[C@H](F)C3)c12 [Compound I-224]"
  reading: "> 6.00"

====

- assay target: mPAD4 (Mus musculus)
- procedure text: mPAD4 RFMS PAD4 inhibition assay
- Type: biochemical
- assay conditions: mPAD4, RFMS readout; read-out: mPAD4 RFMS IC50
Listed next: entries and their corresponding IC50.

- compound: "COCCn1c(-c2nc3cc(C(=O)N4C[C@H](N)CC[C@@H]4C)cc(OC)c3n2C)cc2cccnc21"
  IC50: "1 to 5 µM"
- compound: "CO[C@H]1CCN(C(=O)c2ccc3c(c2)nc(-c2cc4cccnc4n2CC2CC2)n3C)C[C@H]1N (single isomer, unassigned)"
  IC50: "> 10 µM"
- compound: "CCn1c(-c2nc3cc(C(=O)N4CCC[C@@H](N)C4)cc(OC)c3n2CCOC)cc2cccnc21"
  IC50: "1 to 5 µM"
- compound: "Cn1c(-c2cc3cncnc3n2CC2CC2)nc2cc(C(=O)N3CCC4CCNC4C3)ccc21 (stereo not shown)"
  IC50: "> 10 µM"
- compound: "COc1cc(C(=O)N2CC[C@@]3(CNCCC3(F)F)C2)cc2nc(-c3cc4cccnc4n3CC3CC3)n(C)c12"
  IC50: "> 10 µM"
- compound: "CCn1c(-c2nc3cc(C(=O)N4C[C@H](N)C[C@@H](F)C4)cc(OC)c3n2C[C@H]2C[C@@](C)(OC)C2)cc2ccc(OC)nc21"
  IC50: "< 1 µM"
- compound: "CCn1c(-c2nc3cc(C(=O)N4CCC[C@@H](N)C4)c(F)cc3n2C)cc2cccnc21"
  IC50: "5 to 10 µM"

====

Measured pIC50 accompanies every entry in the list below.
- assay target: hPAD4 (Homo sapiens, UniProt Q9UM07)
- Sequence (Q9UM07 whole entry): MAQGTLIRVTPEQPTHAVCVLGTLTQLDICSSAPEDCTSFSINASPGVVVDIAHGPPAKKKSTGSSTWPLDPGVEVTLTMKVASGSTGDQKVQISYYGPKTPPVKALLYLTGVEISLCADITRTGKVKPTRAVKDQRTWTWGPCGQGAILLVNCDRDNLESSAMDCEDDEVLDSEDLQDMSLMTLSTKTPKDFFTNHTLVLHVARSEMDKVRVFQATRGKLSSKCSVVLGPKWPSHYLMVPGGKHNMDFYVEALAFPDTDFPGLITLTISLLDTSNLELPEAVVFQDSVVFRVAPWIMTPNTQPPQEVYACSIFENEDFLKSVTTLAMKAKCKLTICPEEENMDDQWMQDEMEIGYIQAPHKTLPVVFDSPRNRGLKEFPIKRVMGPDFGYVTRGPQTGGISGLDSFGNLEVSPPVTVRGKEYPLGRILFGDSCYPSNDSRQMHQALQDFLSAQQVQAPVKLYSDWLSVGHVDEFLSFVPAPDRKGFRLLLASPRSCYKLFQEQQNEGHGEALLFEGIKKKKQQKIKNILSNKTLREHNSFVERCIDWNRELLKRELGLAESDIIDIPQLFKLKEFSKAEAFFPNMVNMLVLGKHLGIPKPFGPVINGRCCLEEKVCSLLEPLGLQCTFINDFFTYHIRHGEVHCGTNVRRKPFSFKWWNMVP
- procedure text: hPAD4 RFMS (RapidFire mass spectrometry) PAD4 inhibition assay
- Type: biochemical
- assay conditions: hPAD4 enzyme, RFMS readout; read-out: hPAD4 RFMS IC50
pIC50: −log10 of the molar value.
value kind: pIC50

- compound: "CCn1c(-c2nc3cc(C(=O)N4C[C@H]5CC[C@@H]4[C@@H]5N)cc(OC)c3n2C)cc2ccc(C(F)F)nc21 [Compound I-189]"
  reading: "> 6.00"
- compound: "Cn1c(-c2cc3cccnc3n2CC2CC2)nc2cc(C(=O)N3CCCC4(CCCNC4)C3)ccc21 (stereo not shown) [Compound I-45]"
  reading: "< 5.00"
- compound: "COc1cc(C(=O)N2CC(O)(C3CCCCN3)C2)cc2nc(-c3cc4cccnc4n3CC3CC3)n(C)c12 (racemic) [Compound I-74]"
  reading: "< 5.00"
- compound: "COc1cc(C(=O)N2C[C@@H](N)CC[C@@H]2C)cc2nc(-c3cc4cccnc4n3CC3CC3)n(C)c12 [Compound I-89]"
  reading: "< 5.00"
- compound: "CCn1c(-c2cc3ccc(OC)nc3n2CC2CC2)nc2cc(C(=O)N3C[C@@H](N)C[C@H](F)C3)cc(OC)c21 [Compound I-92]"
  reading: "5.30 to 6.00"
- compound: "CCn1c(-c2nc3cc(C(=O)N4C[C@H](N)C[C@@H](F)C4)cc(OC)c3n2C[C@H]2C[C@@](C)(OC)C2)cc2ccc(OC)nc21 [Compound I-205]"
  reading: "> 6.00"
- compound: "COc1cc(C(=O)N2C[C@H]3CC[C@H]2[C@H]3N)cc2nc(-c3cc4cc(/C=C/c5ccc(C(F)(F)F)cc5)ccc4n3CC3CC3)n(C)c12 [Compound I-361]"
  reading: "> 6.00"
- compound: "CCn1c(-c2nc3cc(C(=O)N4C[C@H]5CC[C@@H]4[C@@H]5N)cc(OC)c3n2C)cc2ccc(OC(F)F)nc21 [Compound I-200]"
  reading: "> 6.00"
- compound: "COc1cc(C(=O)N2C[C@H]3COC[C@@]3(CN)C2)cc2nc(-c3cc4cccnc4n3CC3CC3)n(C)c12 [Compound I-125]"
  reading: "< 5.00"
- compound: "COc1cc(C(=O)N2CCC[C@@H](N)C2)cc2nc(-c3cc4cccnc4n3CCF)n(C)c12 [Compound I-146]"
  reading: "5.30 to 6.00"
- compound: "COc1cc(C(=O)N2CCC[C@@H](N)C2)cc2nc(-c3cc4cccnc4n3CC3CC(C)(O)C3)n(C)c12 (stereo partly shown) [Compound I-113]"
  reading: "5.30 to 6.00"
- compound: "COc1cc(C(=O)N2C[C@@H](N)C[C@H](O)C2)cc2nc(-c3cc4cccnc4n3CC3CC3)n(C)c12 (racemic) [Compound I-80]"
  reading: "5.00 to 5.30"
- compound: "COc1cc(C(=O)N2C[C@H]3CC[C@@H]2[C@@H]3N)cc2nc(-c3cc4cccnc4n3CC3CC3)n(C[C@H]3C[C@@](C)(OC)C3)c12 [Compound I-181]"
  reading: "> 6.00"
